- MEASURED_TARGET: Alpha1D (Homo sapiens)
- Sequence (P25100 whole entry): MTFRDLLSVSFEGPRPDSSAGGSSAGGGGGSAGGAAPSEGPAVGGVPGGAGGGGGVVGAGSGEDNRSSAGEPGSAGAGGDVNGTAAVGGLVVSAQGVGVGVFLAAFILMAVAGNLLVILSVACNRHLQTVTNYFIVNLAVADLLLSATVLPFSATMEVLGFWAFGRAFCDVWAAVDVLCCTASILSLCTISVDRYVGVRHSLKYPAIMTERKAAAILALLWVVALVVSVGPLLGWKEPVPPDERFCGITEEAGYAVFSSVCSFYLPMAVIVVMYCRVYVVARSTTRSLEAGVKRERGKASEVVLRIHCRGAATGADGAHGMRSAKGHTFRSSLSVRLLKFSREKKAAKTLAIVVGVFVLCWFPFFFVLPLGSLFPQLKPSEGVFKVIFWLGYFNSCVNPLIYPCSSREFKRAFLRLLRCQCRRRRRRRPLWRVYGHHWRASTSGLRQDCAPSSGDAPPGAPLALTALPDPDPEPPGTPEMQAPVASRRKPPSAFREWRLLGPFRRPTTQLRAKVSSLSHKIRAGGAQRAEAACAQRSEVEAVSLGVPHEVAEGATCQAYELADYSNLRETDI
- PROTOCOL_SUMMARY: Secondary radioligand binding assay (Ki)
- MEASUREMENT_PARAMETERS: read-out: Experimental Receptor Binding Data-Ki ALPHA_1D; Table 25, GPCR panel

- INPUT_SMILES: "COc1ccc2c(c1)CN(CCCN1CCN(c3ccccc3OC)CC1)C2=O"
  Ki, nM: 56
- INPUT_SMILES: "COc1ccc2c(c1)C(=O)N(CCCN1CCN(c3ccccc3OC)CC1)C2"
  Ki, nM: 81.1
- INPUT_SMILES: "COc1ccc2c(c1)C(=O)N(CCN1CCN(c3ccccc3OC)CC1)C2"
  Ki, nM: 12.4
- INPUT_SMILES: "COc1cc2c(cc1OC)C(=O)N(CCCCN1CCN(c3ccccc3OC)CC1)C2"
  Ki, nM: 4.4

====

- MEASURED_TARGET: dopamine D5 (Homo sapiens)
- Sequence (P21918 whole entry): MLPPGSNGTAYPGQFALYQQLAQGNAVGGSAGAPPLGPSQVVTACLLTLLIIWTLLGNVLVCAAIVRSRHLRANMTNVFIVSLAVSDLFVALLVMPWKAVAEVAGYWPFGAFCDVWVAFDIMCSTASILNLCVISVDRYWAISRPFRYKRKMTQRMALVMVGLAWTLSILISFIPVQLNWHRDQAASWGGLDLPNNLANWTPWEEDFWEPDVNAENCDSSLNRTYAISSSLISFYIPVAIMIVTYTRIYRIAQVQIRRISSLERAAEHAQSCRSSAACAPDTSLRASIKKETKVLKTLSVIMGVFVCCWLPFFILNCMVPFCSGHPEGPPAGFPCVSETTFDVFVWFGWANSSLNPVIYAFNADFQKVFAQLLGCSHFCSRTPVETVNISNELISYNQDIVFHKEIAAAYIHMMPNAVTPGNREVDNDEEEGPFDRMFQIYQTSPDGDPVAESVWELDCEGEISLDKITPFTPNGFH
REPORTED_METRIC: Ki

- INPUT_SMILES: "COc1cc2c(cc1OC)C(=O)N(CCCCN1CCN(c3ccccc3OC)CC1)C2"
  MEASURED_TARGET: "dopamine D5 (Homo sapiens)"
  VALUE_MEASURED: "1890 nM"

====

# α1D/D2 listing for each entry below
- MEASURED_TARGET: dopamine D3 (Homo sapiens, UniProt P35462)
- Sequence (P35462 whole entry): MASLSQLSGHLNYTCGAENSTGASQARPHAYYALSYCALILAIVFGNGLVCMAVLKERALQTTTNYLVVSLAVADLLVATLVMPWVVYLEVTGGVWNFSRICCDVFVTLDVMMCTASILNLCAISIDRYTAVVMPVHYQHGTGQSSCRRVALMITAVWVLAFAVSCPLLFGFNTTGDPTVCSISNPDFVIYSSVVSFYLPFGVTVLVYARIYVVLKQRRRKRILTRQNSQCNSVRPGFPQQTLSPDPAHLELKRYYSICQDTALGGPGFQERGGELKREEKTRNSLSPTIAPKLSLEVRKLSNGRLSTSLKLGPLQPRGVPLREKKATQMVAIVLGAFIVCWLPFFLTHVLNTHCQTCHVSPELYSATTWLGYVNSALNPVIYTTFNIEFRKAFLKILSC
- PROTOCOL_SUMMARY: Secondary radioligand binding assay (Ki)
- MEASUREMENT_PARAMETERS: Table 23: Selectivity of Dopamine D3 over α1 Receptors; ratio of Ki
Structures can show the parent of a compound that is named as a salt.

- COMPOUND: "COc1ccc2c(c1)C(=O)N(CCCN1CCN(c3ccccc3OC)CC1)C2 [GFR-VII-273]"
  α1D/D2: 0.5
- COMPOUND: "COc1ccc2c(c1)CN(CCCN1CCN(c3ccccc3OC)CC1)C2=O [GFR-VII-290]"
  α1D/D2: 0.37
- COMPOUND: "COc1ccc2c(c1)C(=O)N(CCN1CCN(c3ccccc3OC)CC1)C2 [GFR-VII-280]"
  α1D/D2: 0.06
- COMPOUND: "COc1ccc2c(c1)C(=O)N(CCN1CCN(c3ccccc3OC)CC1)C2 [GFR-VII-280-HCl]"
  α1D/D2: 0.03
- COMPOUND: "COc1cc2c(cc1OC)C(=O)N(CCCCN1CCN(c3ccccc3OC)CC1)C2 [GFR-VII-285]"
  α1D/D2: 0.4

====

- MEASURED_TARGET: 5-HT2B (Homo sapiens, UniProt P41595)
- Sequence (P41595 whole entry, species assumed): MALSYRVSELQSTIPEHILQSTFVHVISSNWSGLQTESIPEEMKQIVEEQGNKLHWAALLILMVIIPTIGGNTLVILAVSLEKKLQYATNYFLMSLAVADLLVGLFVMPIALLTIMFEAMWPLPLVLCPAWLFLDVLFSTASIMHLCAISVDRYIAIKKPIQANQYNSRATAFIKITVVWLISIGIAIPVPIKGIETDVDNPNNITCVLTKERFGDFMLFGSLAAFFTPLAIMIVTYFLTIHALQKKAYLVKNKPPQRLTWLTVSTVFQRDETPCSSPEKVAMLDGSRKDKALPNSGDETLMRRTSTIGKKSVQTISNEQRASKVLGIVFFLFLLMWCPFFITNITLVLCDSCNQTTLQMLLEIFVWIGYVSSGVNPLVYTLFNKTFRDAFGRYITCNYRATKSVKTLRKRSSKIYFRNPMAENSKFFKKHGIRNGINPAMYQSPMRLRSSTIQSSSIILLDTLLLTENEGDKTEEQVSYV
- PROTOCOL_SUMMARY: Secondary radioligand binding assay (Ki)
- MEASUREMENT_PARAMETERS: read-out: Experimental Receptor Binding Data-Ki 5HT2B; Table 25, GPCR panel

- INPUT_SMILES: "COc1ccc2c(c1)C(=O)N(CCN1CCN(c3ccccc3OC)CC1)C2"
  Ki: "160 nM"

====

- MEASURED_TARGET: 5-HT2B (Homo sapiens)
- PROTOCOL_SUMMARY: Secondary radioligand binding assay (Ki)
Structures can show the parent of a compound that is named as a salt.
REPORTED_METRIC: log10 Ki (log10 of the value in nM)

- MOLECULE: "COc1cc2c(cc1OC)C(=O)N(CCCCN1CCN(c3ccccc3OC)CC1)C2"
  VALUE_MEASURED: 1.61
- MOLECULE: "CC1Cc2ccccc2N1C(=O)CN1CCN(Cc2ccccc2)CC1 (stereo not drawn)"
  VALUE_MEASURED: 2.94
- MOLECULE: "COc1ccc2c(c1)CN(CCCN1CCN(c3ccccc3OC)CC1)C2=O"
  VALUE_MEASURED: 2.07
- MOLECULE: "CC1Cc2ccccc2N1C(=O)CN1CCN(c2ccccc2)CC1 (stereo not drawn)"
  VALUE_MEASURED: 3.16
- MOLECULE: "COc1ccc2c(c1)C(=O)N(CCCN1CCN(c3ccccc3OC)CC1)C2"
  VALUE_MEASURED: 1.28
- MOLECULE: "COc1ccc2c(c1)C(=O)N(CCN1CCN(c3ccccc3OC)CC1)C2 [GFR-VII-280-HCl]"
  VALUE_MEASURED: 2.38

====

- MEASURED_TARGET: α1A (Alpha1A) (Homo sapiens, UniProt P35348)
- Sequence (P35348 1-466): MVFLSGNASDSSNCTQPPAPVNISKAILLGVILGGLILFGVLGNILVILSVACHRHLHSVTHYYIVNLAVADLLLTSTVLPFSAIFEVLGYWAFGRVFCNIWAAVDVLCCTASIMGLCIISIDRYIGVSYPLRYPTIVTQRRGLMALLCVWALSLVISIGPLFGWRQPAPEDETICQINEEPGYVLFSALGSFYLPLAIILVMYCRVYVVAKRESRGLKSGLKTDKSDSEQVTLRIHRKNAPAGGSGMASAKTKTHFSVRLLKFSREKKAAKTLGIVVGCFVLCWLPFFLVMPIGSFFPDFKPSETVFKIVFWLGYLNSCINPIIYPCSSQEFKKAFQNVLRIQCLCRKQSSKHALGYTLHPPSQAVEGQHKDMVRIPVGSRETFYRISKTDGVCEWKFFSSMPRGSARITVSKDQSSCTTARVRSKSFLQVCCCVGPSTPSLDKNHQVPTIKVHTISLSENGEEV
- PROTOCOL_SUMMARY: Secondary radioligand binding assay (Ki)
- MEASUREMENT_PARAMETERS: read-out: Kiα1A
# Ki listing for each entry below

- COMPOUND: "COc1ccc2c(c1)CN(CCCN1CCN(c3ccccc3OC)CC1)C2=O [GFR-VII-290]"
  MEASURED_TARGET: "α1A (Alpha1A) (Homo sapiens, UniProt P35348)"
  Ki (nM): 59.9
- COMPOUND: "COc1ccc2c(c1)C(=O)N(CCN1CCN(c3ccccc3OC)CC1)C2 [GFR-VII-280]"
  MEASURED_TARGET: "α1A (Alpha1A) (Homo sapiens, UniProt P35348)"
  Ki (nM): 15.9
- COMPOUND: "COc1cc2c(cc1OC)C(=O)N(CCCCN1CCN(c3ccccc3OC)CC1)C2 [GFR-VII-285]"
  MEASURED_TARGET: "α1A (Alpha1A) (Homo sapiens, UniProt P35348)"
  Ki (nM): 0.9
- COMPOUND: "COc1ccc2c(c1)C(=O)N(CCCN1CCN(c3ccccc3OC)CC1)C2 [GFR-VII-273]"
  MEASURED_TARGET: "α1A (Alpha1A) (Homo sapiens, UniProt P35348)"
  Ki (nM): 64.9

====

- MEASURED_TARGET: α1B (Alpha1B) (Homo sapiens)
- PROTOCOL_SUMMARY: Secondary radioligand binding assay (Ki)
Counter-ions that a name gives are not always drawn.
REPORTED_METRIC: Ki (µM)

- MOLECULE: "COc1ccc2c(c1)C(=O)N(CCN1CCN(c3ccccc3OC)CC1)C2 [GFR-VII-280-HCl]"
  UNIT_ANNOTATION: "µM"
  VALUE_MEASURED: 0.0291

====

# Ki listing for each entry below
- MEASURED_TARGET: α1B (Alpha1B) (Homo sapiens)
- Sequence (P35368 1-520): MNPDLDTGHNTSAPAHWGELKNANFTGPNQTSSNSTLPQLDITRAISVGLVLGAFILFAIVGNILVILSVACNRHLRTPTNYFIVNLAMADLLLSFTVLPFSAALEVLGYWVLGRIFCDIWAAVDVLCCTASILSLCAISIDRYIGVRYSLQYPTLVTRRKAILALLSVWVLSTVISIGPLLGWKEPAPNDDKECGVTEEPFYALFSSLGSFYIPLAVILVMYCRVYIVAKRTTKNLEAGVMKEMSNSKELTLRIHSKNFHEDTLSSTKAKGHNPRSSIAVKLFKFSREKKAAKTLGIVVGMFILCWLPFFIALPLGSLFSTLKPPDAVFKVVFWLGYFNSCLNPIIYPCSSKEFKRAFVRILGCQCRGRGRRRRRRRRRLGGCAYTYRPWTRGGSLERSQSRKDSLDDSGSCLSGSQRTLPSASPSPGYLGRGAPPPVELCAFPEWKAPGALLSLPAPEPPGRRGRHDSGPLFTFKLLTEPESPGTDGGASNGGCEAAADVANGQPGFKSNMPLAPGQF
- PROTOCOL_SUMMARY: Secondary radioligand binding assay (Ki)
- MEASUREMENT_PARAMETERS: read-out: Kiα1B

- INPUT_SMILES: "COc1cc2c(cc1OC)C(=O)N(CCCCN1CCN(c3ccccc3OC)CC1)C2"
  UNIT_ANNOTATION: "nM"
  Ki: 19.3
- INPUT_SMILES: "COc1ccc2c(c1)C(=O)N(CCN1CCN(c3ccccc3OC)CC1)C2"
  UNIT_ANNOTATION: "nM"
  Ki: 38.7
- INPUT_SMILES: "COc1ccc2c(c1)CN(CCCN1CCN(c3ccccc3OC)CC1)C2=O"
  UNIT_ANNOTATION: "nM"
  Ki: 608
- INPUT_SMILES: "COc1ccc2c(c1)C(=O)N(CCCN1CCN(c3ccccc3OC)CC1)C2"
  UNIT_ANNOTATION: "nM"
  Ki: 323
